All figures here come from the supplement of paper PMC10681739.

- targetOrTestSystem: RUNX1 (UniProt Q01196)
- Sequence (Q01196 whole entry): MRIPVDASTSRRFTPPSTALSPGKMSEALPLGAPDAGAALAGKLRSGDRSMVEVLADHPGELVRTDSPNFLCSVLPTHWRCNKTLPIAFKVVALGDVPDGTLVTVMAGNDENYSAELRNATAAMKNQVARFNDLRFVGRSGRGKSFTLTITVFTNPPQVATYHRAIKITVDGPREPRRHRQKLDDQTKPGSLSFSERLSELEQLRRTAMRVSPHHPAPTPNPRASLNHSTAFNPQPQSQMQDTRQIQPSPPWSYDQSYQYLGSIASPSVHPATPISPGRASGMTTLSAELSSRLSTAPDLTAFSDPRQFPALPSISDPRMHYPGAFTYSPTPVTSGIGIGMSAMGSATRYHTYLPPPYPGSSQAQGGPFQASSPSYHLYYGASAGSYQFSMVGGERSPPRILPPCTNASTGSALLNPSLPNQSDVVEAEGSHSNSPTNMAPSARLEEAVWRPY
- protocolDescription: RUNX1 binding intensity (PBM fluorescence), RUNX1 alone (arbitrary fluorescence units); higher = stronger binding
- appliedConditions: RUNX1 concentration 2 nM; ETS1 concentration 0 nM
The full ranking holds about 4,000 sequences; the median of “arbitrary fluorescence units” is about 830, and the highest 2% start at about 6,500. What follows is part of a selection rich in the highest values, with near analogues and random picks from the rest.
Quick rule for you: RUNX1 binding intensity at 900 or higher means rule met, lower means rule not met.

• TCAAAGCTGCGGGGTTTCATTGCCTGTTCCTGAACA = rule not met
• AGACTAGAGGCGGTTGTGTGAGTCAGAAAGAGGGGC = rule not met

Please tell me: is the sequence "CTGCCATGAAGGGTTCTGGTTTGAGGTCTCCTCTTA" at or over 900 in terms of RUNX1 binding intensity? rule not met

Tell me whether RUNX1 binding intensity is at least 900 here: "AACCCCTTGCACCGCGGACACAGCTTCTTCTTCCCC" rule met

// inclusive: RUNX1 binding intensity at least 900? input: "GCAGAAACAGAAAGAGACAGGGCTGACCGCAGCAGG" rule met

Exam item: decide whether the reported RUNX1 binding intensity for "GACGTAAGCCGAGAGGCTCCCGTAAGCGGTCTTGAG" is at least 900. rule not met

Hello, I need to know if "GCAACCGCACTCCGAAAGCTCTGGGCCTGAAGAGTC" has measured RUNX1 binding intensity not below 900. Thanks! rule met

Check if RUNX1 binding intensity >= 900 (inclusive). Item: "CCCCACATACGGGGGCCGGGGCCGGGCTGTGGGCTT" rule not met

Record "CAGGCTGCTGTGGCTACTGCAGCACTGCCTCCCGCT" ; criterion: RUNX1 binding intensity no lower than 900. Met? rule not met

Assess whether reported RUNX1 binding intensity for "CAGTCGCCAGAAACCACAGCACTTCGGCCTGCTTCA" sits at 900 or higher. rule met

Textbook exercise: given the entry "ACCTCCACCACAAAGAACAAAAAACGAAGGATAAAA" , state whether its RUNX1 binding intensity is greater than or equal to 900. rule met

Dear colleague, could you confirm whether "GAGGTGGTCAGAGCCTCCCTTGACATGAAACAAGAA" has RUNX1 binding intensity at or above 900? rule not met

# check: RUNX1 binding intensity of "GGCGCCTCTTTGCGCCCCCGCCCACAATCGAGCGCA" is greater than or equal to 900 rule not met
